- Tested on: Myzus persicae (Green peach aphid)
- methodNotes: Example B6: Myzus persicae systemic activity, pea seedlings
- Assay type: in vivo
- settings: Concentration 1.5 ppm; Myzus persicae (systemic, Example B6); read-out: Mortality (%)
recordedEndpoint: mortality at 1.5 ppm (%)

[
  {
    "compound": "CCN(C(C)=O)c1cnc(-c2nc3cc(C(F)(F)F)ncc3n2C)c(S(=O)(=O)CC)c1",
    "testResult": 100
  },
  {
    "compound": "CCS(=O)(=O)c1ccc(N2CCN(C)C2=O)nc1-c1nc2cc(C(F)(F)F)ncc2n1C [reference compound]",
    "testResult": 0
  },
  {
    "compound": "CCS(=O)(=O)c1cc(NC(=O)C2CC2)cnc1-c1nc2cc(C(F)(F)F)ncc2n1C [P2]",
    "testResult": 80
  },
  {
    "compound": "CCS(=O)(=O)c1cc(-n2ccccc2=O)cnc1-c1nc2cc(C(F)(F)F)ncc2n1C [reference compound]",
    "testResult": 0
  },
  {
    "compound": "CCS(=O)(=O)c1cc(N2CCNC2=O)cnc1-c1nc2cc(C(F)(F)F)ncc2n1C",
    "testResult": 100
  },
  {
    "compound": "CCS(=O)(=O)c1cc(N2CCOC2=O)cnc1-c1nc2cc(C(F)(F)F)ncc2n1C",
    "testResult": 100
  },
  {
    "compound": "CCS(=O)(=O)c1cc(N2CCN(C)C2=O)cnc1-c1nc2cc(C(F)(F)F)ncc2n1C",
    "testResult": 100
  },
  {
    "compound": "CCC(=O)N(C)c1cnc(-c2nc3cc(C(F)(F)F)ncc3n2C)c(S(=O)(=O)CC)c1",
    "testResult": 100
  },
  {
    "compound": "CCS(=O)(=O)c1cc(NC(=O)C2CC2)cnc1-c1nc2cc(C(F)(F)F)cnc2n1C [reference compound]",
    "testResult": 0
  },
  {
    "compound": "CCS(=O)(=O)c1cc(N2CCSC2=O)cnc1-c1nc2cc(C(F)(F)F)ncc2n1C",
    "testResult": 50
  }
]

---

compounds and their reported percent effect (mortality or growth inhibition) at 200 ppm
- System: Plutella xylostella (Diamond Back Moth)
- methodNotes: Example B7: Plutella xylostella, artificial diet, L2 larvae
- Assay type: in vivo
- settings: 120 h, application rate of 200 ppm, L2 larvae, 5 days after infestation, read-out: effect in at least one of the two categories (mortality or growth inhibition)
- Experimental: 24-well microtiter plates with artificial diet were treated with aqueous test solutions prepared from 10,000 ppm DMSO stock solutions by pipetting. After drying, the plates were infested with L2 larvae (10 to 15 per well). The samples were assessed for mortality and growth inhibition in comparison to untreated samples 5 days after infestation.
recordedEndpoint: percent effect (mortality or growth inhibition) at 200 ppm

[
  {
    "compound": "CCS(=O)(=O)c1cc(NC(=O)C2CC2)cnc1-c1nc2cc(C(F)(F)F)ncc2n1C [P2]",
    "testResult": "≥ 80%"
  },
  {
    "compound": "CCS(=O)(=O)c1cc(N(C)C(=O)C(F)(F)F)cnc1-c1nc2cc(C(F)(F)F)ncc2n1C",
    "testResult": "≥ 80%"
  },
  {
    "compound": "CCC(=O)N(c1cnc(-c2nc3cc(C(F)(F)F)ncc3n2C)c(S(=O)(=O)CC)c1)C1CC1",
    "testResult": "≥ 80%"
  }
]

From: patent US20210047291A1
